- System: Candida albicans
- experiment summary: Inhibition of Candida albicans CaCdr1p-mediated drug efflux overexpressed in Saccharomyces cerevisiae assessed as nile red accumulation after 30 mins by flow cytometry
Active and inactive are the calls of the source. No cut-off for these calls is given here.
Log the outcome using a class from Yes = active, No = inactive

| compound | label value |
| --- | --- |
| C=C1CC(OC(C)=O)C(=O)C(C)(C)/C=C/[C@H](C)[C@@H](OC(C)=O)[C@@]2(OC(C)=O)C[C@@H](C)[C@H](OC(=O)c3ccccc3)[C@@H]2[C@H]1OC(C)=O (stereo partly drawn) | Yes |
| CC(=O)O[C@@H]1[C@H](C)/C=C/C(C)(C)C(=O)C[C@@H](OC(=O)c2ccccc2)/C(C)=C/[C@H]2[C@@H](OC(=O)c3ccccc3)[C@H](C)C[C@]12OC(C)=O | No |
| CC(=O)O[C@@H]1[C@@H](O)[C@@H](OC(C)=O)/C(C)=C/[C@H]2[C@@H](OC(=O)c3ccccc3)[C@H](C)C[C@]2(OC(C)=O)[C@H](OC(C)=O)[C@@H](C)/C=C/C1(C)C | Yes |
| C=C1CCC(=O)C(C)(C)/C=C/[C@H](C)C(=O)[C@@]2(OC(C)=O)C[C@H](C)[C@H](OC(=O)c3ccccc3)[C@@H]2[C@H]1OC(C)=O | Yes |
| CC(=O)O[C@@H]1[C@@H](OC(C)=O)C(C)(C)/C=C/[C@H](C)[C@@H](OC(C)=O)[C@@]2(OC(C)=O)C[C@@H](C)[C@H](OC(=O)c3ccccc3)/C2=C\[C@](C)(O)[C@@H]1O | No |
| C=C1[C@H](OC(=O)c2ccccc2)[C@H]2[C@@H](OC(C)=O)[C@@H](C)C[C@]2(OC(C)=O)C(=O)[C@@H](C)/C=C/C(C)(C)C(=O)[C@H](OC(C)=O)[C@H]1OC(C)=O | No |

Q: Check the results log: what was the call for "C=C1[C@H](OC(C)=O)[C@@H](OC(C)=O)[C@@H](OC(C)=O)C(C)(C)/C=C/[C@H](C)C(=O)[C@@]2(OC(C)=O)C[C@H](C)[C@H](OC(C)=O)[C@@H]2[C@H]1OC(=O)c1ccccc1" ?
Result: No
